experimentalTarget: PRMT5 (Homo sapiens)
Construct: purchased Viva (custom protein)
Sequence (O14744 whole entry): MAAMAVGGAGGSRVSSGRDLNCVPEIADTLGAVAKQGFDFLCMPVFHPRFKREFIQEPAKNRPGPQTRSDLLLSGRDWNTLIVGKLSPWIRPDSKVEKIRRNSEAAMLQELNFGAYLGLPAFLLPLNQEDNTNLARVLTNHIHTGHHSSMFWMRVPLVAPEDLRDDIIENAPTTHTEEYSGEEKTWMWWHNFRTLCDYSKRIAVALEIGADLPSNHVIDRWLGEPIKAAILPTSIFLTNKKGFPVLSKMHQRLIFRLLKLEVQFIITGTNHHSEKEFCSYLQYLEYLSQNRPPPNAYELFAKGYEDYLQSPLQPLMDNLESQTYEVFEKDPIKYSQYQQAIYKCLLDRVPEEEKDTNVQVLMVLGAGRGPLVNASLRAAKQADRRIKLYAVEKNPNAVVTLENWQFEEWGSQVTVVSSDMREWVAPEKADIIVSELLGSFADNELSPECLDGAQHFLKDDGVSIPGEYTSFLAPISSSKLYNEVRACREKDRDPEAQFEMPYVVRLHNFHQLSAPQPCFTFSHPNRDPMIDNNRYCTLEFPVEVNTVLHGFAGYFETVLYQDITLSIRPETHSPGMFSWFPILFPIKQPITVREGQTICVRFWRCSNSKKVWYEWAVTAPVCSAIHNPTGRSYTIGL
Sequence (Q9BQA1 whole entry partner): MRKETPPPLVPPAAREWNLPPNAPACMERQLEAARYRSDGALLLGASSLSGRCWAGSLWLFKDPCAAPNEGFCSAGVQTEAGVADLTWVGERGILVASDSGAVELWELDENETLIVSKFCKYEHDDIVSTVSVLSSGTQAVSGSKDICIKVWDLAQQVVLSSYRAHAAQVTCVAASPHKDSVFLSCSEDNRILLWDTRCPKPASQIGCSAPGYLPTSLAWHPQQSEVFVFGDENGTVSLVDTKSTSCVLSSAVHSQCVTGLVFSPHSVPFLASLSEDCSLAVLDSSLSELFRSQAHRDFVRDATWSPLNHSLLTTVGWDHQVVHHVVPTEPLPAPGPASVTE
assayProtocol: PRMT5 biochemical IC50 assay with MTA as cofactor
conditionSummary: PRMT5, MTA as cofactor; read-out: MTA IC50
Field: IC50. Provide a value for each of the molecules that follow.

Noted for Cc1cnc(N)c(NC(=O)C(=O)N2CCCCC2c2ccccc2)c1 (centres unmarked) [Compound 160] : its IC50 reads > 0.5 µM

Noted for Cc1cc(NC(=O)C(=O)N2C[C@@H](C)CC[C@@H]2c2ccc(N3CCN(C)CC3)cc2)cnc1N (single isomer, unassigned) [Compound 1328] : its IC50 reads < 0.05 µM

IC50 recorded for this molecule, CNc1cccc([C@H]2CC[C@H](C)CN2C(=O)C(=O)Nc2cncc(C(N)=O)c2)c1 (single isomer, unassigned) [Compound 321] , is > 0.5 µM

Lab note: Cc1cc(NC(=O)C(=O)N2C[C@H](C)CC[C@H]2c2ccn(-c3cc[nH]n3)n2)cnc1N (single isomer, unassigned) [Compound 782] gave IC50 of < 0.05 µM

Value of IC50 reported for the molecule C[C@@H]1CC[C@@H](c2ccc3nccn3c2)N(C(=O)C(=O)Nc2cncc(C(N)=O)c2)C1 (racemic) [Compound 234] is 0.05 to 0.5 µM

Please fill in: IC50 reported for Cc1cc(NC(=O)C(=O)N2C[C@@H](C)CC[C@@H]2c2cccc(Cl)c2)cnc1N (single isomer, unassigned) [Compound 284] = < 0.05 µM

Per the record, CCc1cc(NC(=O)C(=O)N2C[C@@H](C)CC[C@@H]2c2cccc(OC[C@@H]3CCN(C)C3)c2)cnc1N [Compound 1178] has IC50 of < 0.05 µM

// IC50 lookup, molecule = COc1ncc(NC(=O)C(=O)N2CCCCC2c2ccccc2)cc1C(N)=O (single isomer, unassigned) [Compound 202] , result: < 0.05 µM

For this molecule ( Cc1cc(NC(=O)C(=O)N2CCCC[C@H]2C(C)C)cnc1N (single isomer, unassigned) [Compound 192] ), measured IC50 is < 0.05 µM

The molecule listed as NC(=O)c1cncc(NC(=O)C(=O)N2CC[C@@H](O)C[C@H]2c2ccccc2)c1 (racemic) [Compound 185] has a reported IC50 of 0.05 to 0.5 µM

Just so you know, measured IC50 for CCc1cc(NC(=O)C(=O)N2C[C@@H](C)CC[C@@H]2c2ccc3sc(C4CCN(C)C(=O)C4)nc3c2)cnc1N (mixture of isomers) [Compound 1110] came out at < 0.05 µM

Per the record, Cc1cc(NC(=O)C(=O)N2C[C@@H](C)CC[C@@H]2c2ccc(C(N)=O)s2)cnc1N (single isomer, unassigned) [Compound 733] has IC50 of < 0.05 µM

The reported value for C[C@@H]1CC[C@@H](c2cc(Cl)cc(Cl)c2)N(C(=O)C(=O)Nc2cncc(C(N)=O)c2)C1 (single isomer, unassigned) [Compound 490] in terms of IC50 is > 0.5 µM

Value of IC50 reported for the molecule C[C@H]1CC[C@H](c2cccc3[nH]ncc23)N(C(=O)C(=O)Nc2cncc(C(N)=O)c2)C1 (single isomer, unassigned) [Compound 897] is < 0.05 µM

Form: molecule = Cc1cc(NC(=O)C(=O)N2C[C@H](C)CC[C@H]2c2cc(F)c(F)c(Cl)c2)cnc1N (single isomer, unassigned) [Compound 847] ; IC50 = > 0.5 µM

For record Cc1cc(NC(=O)C(=O)N2CCCC[C@H]2c2ccncc2)cnc1N (single isomer, unassigned) [Compound 47] the listed IC50 is > 0.5 µM

Input CC(=O)Nc1ccc([C@@H]2CC[C@@H](C)CN2C(=O)C(=O)Nc2cnc(N)c(C)c2)cn1 (single isomer, unassigned) [Compound 927] . Output IC50: > 0.5 µM

Item: Cc1cc(NC(=O)C(=O)N2C[C@@H](C)CC[C@@H]2c2cccc3[nH]ccc23)cnc1N (single isomer, unassigned) [Compound 1038] | IC50: > 0.5 µM

Looking up C[C@@H]1CC[C@@H](c2ccc(-c3ccn[nH]3)cc2)N(C(=O)C(=O)Nc2cncc(C(N)=O)c2)C1 (racemic) [Compound 524] , I see its IC50 listed as 0.05 to 0.5 µM

molecule CN(C)c1cccc([C@H]2CCCCN2C(=O)C(=O)Nc2cncc(C(N)=O)c2)c1 (single isomer, unassigned) [Compound 366] , IC50 observed: 0.05 to 0.5 µM

Looking up CCOc1ncc(NC(=O)C(=O)N2C[C@@H](C)CC[C@@H]2c2ccccc2)cc1C(N)=O (racemic) [Compound 738] , I see its IC50 listed as 0.05 to 0.5 µM

Per the record, C[C@@H]1CC[C@@H](c2ccc(F)cc2)N(C(=O)C(=O)Nc2cnc(OC(F)F)c(C(N)=O)c2)C1 (racemic) [Compound 889] has IC50 of 0.05 to 0.5 µM

COc1cc([C@@H]2CC[C@@H](C)CN2C(=O)C(=O)Nc2cncc(C(N)=O)c2)cnc1C(F)(F)F (racemic) [Compound 223] yielded IC50 of 0.05 to 0.5 µM

What the record says about Cc1cncc(NC(=O)C(=O)N2C[C@H](C)CC[C@H]2c2cccc(F)c2)c1 (racemic) [Compound 70] : IC50 is 0.05 to 0.5 µM

The molecule listed as NC(=O)c1cncc(NC(=O)C(=O)N2C[C@@H](CC(F)(F)F)CC[C@H]2c2ccccc2)c1 (racemic) [Compound 318] shows IC50 equal to 0.05 to 0.5 µM

Please fill in: IC50 reported for C[C@@H]1CC[C@@H](c2cncc(Cl)c2)N(C(=O)C(=O)Nc2cncc(C(N)=O)c2)C1 (racemic) [Compound 791] = < 0.05 µM
